Assay: qHTS assay for identifying genotoxic compounds that show differential cytotoxicity against isogenic chicken DT40 cell lines with known DNA damage response pathways - wild type cell line (AID 743012); also: nearly all actives have a fitted effect of over 60% in size
Measurement Setup: DT40 wild type chicken cells viability, CellTiter-Glo, 40 h; series mostly up to 68.4 µM
Inconclusive results are not listed. Calls of active or inactive are those of the source. Calls follow the shape of the dose curve; as a rule, active = well fitted cell-killing curve with a large enough effect in the repeat runs; inconclusive = weak or mixed curves, or effect the other way; inactive = no such curve, though single readings can be large or run the other way.
Outcomes: class 1 (active), class 0 (inactive)

[[record]]
substance_smiles = "CC(C)CCCCCOC(=O)CCS"
classification = "class 0"

[[record]]
substance_smiles = "CCCCCCCCCCC[C@@H](C[C@@H]1OC(=O)[C@H]1CCCCCC)OC(=O)[C@H](CC(C)C)NC=O"
classification = "class 1"

[[record]]
substance_smiles = "O=C(c1ccc(O)c(O)c1)c1ccc(O)cc1O"
classification = "class 1"

[[record]]
substance_smiles = "O=C1C(c2[nH]c3ccc(S(=O)(=O)O)cc3c2O)=Nc2ccc(S(=O)(=O)O)cc21"
classification = "class 0"

[[record]]
substance_smiles = "O=[N+]([O-])c1ccc(F)c(Cl)c1"
classification = "class 0"

[[record]]
substance_smiles = "CC(C)(C)NSc1nc2ccccc2s1"
classification = "class 0"


====

Assay: qHTS assay for small molecule disruptors of the mitochondrial membrane potential (AID 720635)
Measurement Setup: HepG2 mitochondrial membrane potential, Mito-MPS dye ratio; series mostly up to 83.2 µM
Results filed as inconclusive are left out. Active and inactive are the calls of the source. Calls follow the shape of the dose curve; as a rule, active = well fitted inhibition curve with a large enough effect in the signal ratio in the repeat runs; inconclusive = weak or mixed curves, or effect the other way; inactive = flat fitted curve, though single readings scatter; the % refers to the signal ratio.
Outcomes: true (1) (active), false (0) (inactive)

[[record]]
molecule = "Cc1c(C)c2c(c(C)c1O)CC[C@@](C)(CCC[C@H](C)CCC[C@H](C)CCCC(C)C)O2"
classification = "false (0)"

[[record]]
molecule = "O=C(/C=C/c1ccc(O)c(O)c1)O[C@@H](C(=O)O)[C@@H](OC(=O)/C=C/c1ccc(O)c(O)c1)C(=O)O"
classification = "false (0)"

[[record]]
molecule = "CC(C)(C)NSc1nc2ccccc2s1"
classification = "true (1)"

[[record]]
molecule = "O=c1[nH]c(=O)n([C@H]2C[C@H](O)[C@@H](CO)O2)cc1F"
classification = "false (0)"

[[record]]
molecule = "C=CC(C)(CCC=C(C)C)OC=O (stereo not given)"
classification = "false (0)"


====

Assay: qHTS assay for small molecule agonists of the p53 signaling pathway - cell viability (AID 651633); also: nearly all actives have a fitted effect of over 30% in size
Measurement Setup: p53RE-bla HCT-116 viability, ATP luminescence, 16 h; series mostly up to 83.3 µM
Excerpt: National Center for Advancing Translational Sciences [NCATS] NIH Chemical Genomics Center [NCGC] U.S. Environmental Protection Agency [EPA] National Institutes of Environmental Health Sciences [NIEHS] National Toxicology Program [NTP] U.S. Food and Drug Administration [FDA] p53, a tumor suppressor protein, is activated following cellular insult, including DNA damage and other cellular stresses. […] The activation of the reporter gene under culture conditions can be detected by fluorescence intensity. […]
Results filed as inconclusive are left out. The source made the active and inactive calls. The call rests on the fitted dose curve.
Outcomes: active, inactive

[[record]]
molecule = "NC(=S)NC(N)=S"
classification = "inactive"

[[record]]
molecule = "CNc1ccc([N+](=O)[O-])cc1"
classification = "inactive"

[[record]]
molecule = "O=[N+]([O-])c1ccc(F)c(Cl)c1"
classification = "inactive"

[[record]]
molecule = "Cc1ccc(C(C)C)cc2c(C)ccc1-2"
classification = "inactive"

[[record]]
molecule = "Nc1ccc(C(=O)O)c(O)c1"
classification = "inactive"

[[record]]
molecule = "O=c1[nH]c(=O)n([C@H]2C[C@H](O)[C@@H](CO)O2)cc1F"
classification = "active"

[[record]]
molecule = "CC1(C)CCC[C@]2(C)[C@H]3CC(=O)O[C@]3(C)CC[C@@H]12"
classification = "inactive"

[[record]]
molecule = "COc1ccc(NC(=O)CC(C)=O)cc1"
classification = "inactive"

[[record]]
molecule = "O=C(/C=C/c1ccccc1)OC/C=C/c1ccccc1"
classification = "inactive"

[[record]]
molecule = "O=C(Oc1ccccc1)Oc1ccccc1"
classification = "inactive"

[[record]]
molecule = "CC[N+](CC)(CC)CCOc1ccc(/C=C/c2ccccc2)cc1"
classification = "inactive"

[[record]]
molecule = "C/C=C/C=C/COC(=O)C(C)C"
classification = "inactive"

[[record]]
molecule = "CCCCCCCCCCCC(=O)OCC(C)OC(=O)CCCCC(=O)O (stereo unspecified)"
classification = "inactive"

[[record]]
molecule = "O=C1C(c2[nH]c3ccc(S(=O)(=O)O)cc3c2O)=Nc2ccc(S(=O)(=O)O)cc21"
classification = "inactive"

[[record]]
molecule = "CCCCCc1ccc(Cl)cc1"
classification = "inactive"

[[record]]
molecule = "C=CC(=O)OCCOC(=O)C=C"
classification = "inactive"

[[record]]
molecule = "O=C1CCc2ccc(OCCCCN3CCN(c4cccc(Cl)c4Cl)CC3)cc2N1"
classification = "active"

[[record]]
molecule = "CC(=O)OCC=C(C)C"
classification = "inactive"

[[record]]
molecule = "c1cnccn1"
classification = "inactive"

[[record]]
molecule = "COCCOc1cc2cc(C(=O)NC3CCN(C(C)C)CC3)n(CC(=O)Nc3ccc(Cl)cn3)c2cn1"
classification = "inactive"

[[record]]
molecule = "C[C@@H](O)[C@H](N)C(=O)O"
classification = "inactive"

[[record]]
molecule = "S=C([S-])NCCNC(=S)[S-].S=C([S-])NCCNC(=S)[S-].[Mn+2].[Zn+2]"
classification = "inactive"

[[record]]
molecule = "Nc1ccc(NCCO)c([N+](=O)[O-])c1"
classification = "inactive"

[[record]]
molecule = "C[C@H]1NCc2cc(-c3ccc4c(=O)c(C(=O)O)cn(C5CC5)c4c3OC(F)F)ccc21"
classification = "inactive"

[[record]]
molecule = "CCOc1ccc2ccccc2c1C(=O)N[C@@H]1C(=O)N2[C@@H]1SC(C)(C)[C@@H]2C(=O)O"
classification = "inactive"

[[record]]
molecule = "O=C1NC(=O)[C@@H]2CC=CC[C@H]12"
classification = "inactive"


====

Assay: qHTS RealTime-Glo MT Cell Viability Assay in HepG2 cells - 32 hour (AID 1224877); also: nearly all actives have a fitted effect of over 55% in size
Measurement Setup: RealTime-Glo luminescence; series mostly up to 76.8 µM
Inconclusive results are not listed. Active and inactive are the calls of the source. Calls come from the whole dose curve; as a rule, active = well fitted cell-killing curve with a large enough effect in the repeat runs; inconclusive = weak or mixed curves; inactive = flat fitted curve, though single readings scatter.
Outcomes: active, inactive

[[record]]
substance_smiles = "CCN(CC)C(=O)c1cc(S(=O)(=O)Cc2ccccc2)c(N2CCC(c3ccccc3)CC2)cc1N(CC)CCN(C)C"
classification = "active"

[[record]]
substance_smiles = "CN1CCC[C@@H]1CCO[C@](C)(c1ccccc1)c1ccc(Cl)cc1"
classification = "active"

[[record]]
substance_smiles = "CCCCCCCCCCCCOC(=O)c1ccc(O)cc1"
classification = "inactive"

[[record]]
substance_smiles = "O=[N+]([O-])c1cccc(C(F)(F)F)c1"
classification = "inactive"

[[record]]
substance_smiles = "C#C[C@]1(OC(C)=O)CC[C@H]2[C@@H]3CCC4=C[C@@H](OC(C)=O)CC[C@@H]4[C@H]3CC[C@@]21C"
classification = "inactive"


====

Assay: qHTS assay to identify small molecule antagonists of the estrogen receptor alpha (ER-alpha) signaling pathway - cell viability counter screen (AID 743074);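 also: HEK293 cells carrying ER-alpha-UAS-bla reporter stimulated with 17beta-estradiol; nearly all actives have a fitted effect of over 45% in size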
Measurement Setup: ERalpha-bla HEK293 viability, CellTiter-Glo luminescence, 18 h; series mostly up to 69.4 µM
Inconclusive results are not listed. Activity calls are given as the source filed them. Calls follow the shape of the full dose curve.
Outcomes: label 1 = active, label 0 = inactive

[[record]]
compound = "Clc1ccnc(Cl)n1"
classification = "label 0"

[[record]]
compound = "c1ccsc1"
classification = "label 0"

[[record]]
compound = "COc1c(C)c2c(c(O)c1C/C=C(\\C)CCC(=O)OCCN1CCOCC1)C(=O)OC2"
classification = "label 0"

[[record]]
compound = "CNc1ccc([N+](=O)[O-])cc1"
classification = "label 0"

[[record]]
compound = "COc1cccc2c1C(=O)c1c(O)c3c(c(O)c1C2=O)C[C@@](O)(C(C)=O)C[C@@H]3O[C@H]1C[C@H](N)[C@H](O)[C@H](C)O1"
classification = "label 0"

[[record]]
compound = "COC(=O)c1ccccc1C"
classification = "label 0"

[[record]]
compound = "C=CC(C)(CCC=C(C)C)OC=O (stereo not given)"
classification = "label 0"

[[record]]
compound = "c1cnccn1"
classification = "label 0"

[[record]]
compound = "COc1cc(/C=C/c2ccccc2)oc(=O)c1"
classification = "label 0"

[[record]]
compound = "COC(C)=O"
classification = "label 0"

[[record]]
compound = "CC1=CCC(=C(C)C)CC1"
classification = "label 0"

[[record]]
compound = "Nc1cc(Cl)c(O)c(Cl)c1"
classification = "label 0"

[[record]]
compound = "O=C(O)Cc1ccccc1Nc1c(Cl)cccc1Cl"
classification = "label 0"

[[record]]
compound = "O=C(Nc1ccc2c(O)c(N=Nc3ccc(N=Nc4ccc(S(=O)(=O)O)cc4)cc3)c(S(=O)(=O)O)cc2c1)c1ccccc1"
classification = "label 0"

[[record]]
compound = "O=c1[nH]c(=O)n([C@H]2C[C@H](O)[C@@H](CO)O2)cc1F"
classification = "label 1"

[[record]]
compound = "CCOC(=O)Cn1cccc1-c1nc(-c2ccc(OC)cc2)c(-c2ccc(OC)cc2)s1"
classification = "label 0"

[[record]]
compound = "CCN1C(=O)c2ccccc2C1Nc1ccc(OCCN2CCCCC2)cc1 (stereo not given)"
classification = "label 0"

[[record]]
compound = "Cc1ccc(N/N=c2\\c(=O)cc/c(=N\\Nc3ccc(S(=O)(=O)O)cc3)c2=O)c(C)c1"
classification = "label 0"

[[record]]
compound = "CC(=O)CC(=O)Nc1ccc(S(=O)(=O)O)cc1"
classification = "label 0"

[[record]]
compound = "OC1CCC(C2CCCCC2)CC1 (stereo not given)"
classification = "label 0"

[[record]]
compound = "O=C1CCCCCCCCCCCCCCCO1"
classification = "label 0"

[[record]]
compound = "CC(C)(C)C1CCC(=O)CC1"
classification = "label 0"

[[record]]
compound = "Sc1nc2ccccc2s1"
classification = "label 0"

[[record]]
compound = "CN1CCCCC1CCN1c2ccccc2Sc2ccc(S(C)=O)cc21 (stereo not given)"
classification = "label 0"

[[record]]
compound = "CC1(C)CCC[C@]2(C)[C@H]3CC(=O)O[C@]3(C)CC[C@@H]12"
classification = "label 0"

[[record]]
compound = "CN1CCN2c3ccccc3Cc3ccccc3C2C1 (stereo not given)"
classification = "label 1"

[[record]]
compound = "O=C(O)c1cc(N=Nc2ccc([N+](=O)[O-])cc2)ccc1O"
classification = "label 0"

[[record]]
compound = "Cc1cc(C)c(/C=C2\\C(=O)Nc3ccccc32)[nH]1"
classification = "label 0"

[[record]]
compound = "Nc1nc2c(ncn2COCCO)c(=O)[nH]1"
classification = "label 0"

[[record]]
compound = "CC(C)(C)c1ccc(C(O)CCCN2CCC(C(O)(c3ccccc3)c3ccccc3)CC2)cc1 (stereo not given)"
classification = "label 0"

[[record]]
compound = "CCC(C)n1ncn(-c2ccc(N3CCN(c4ccc(OC[C@H]5CO[C@](Cn6cncn6)(c6ccc(Cl)cc6Cl)O5)cc4)CC3)cc2)c1=O (stereo not given in full)"
classification = "label 0"

[[record]]
compound = "O=[N+]([O-])c1ccc(F)c(Cl)c1"
classification = "label 0"

[[record]]
compound = "C=CC(=O)OCCOC(=O)C=C"
classification = "label 0"

[[record]]
compound = "C#C[C@]1(OC(C)=O)CC[C@H]2[C@@H]3CCC4=C/C(=N/O)CC[C@@H]4[C@H]3CC[C@@]21CC"
classification = "label 0"

[[record]]
compound = "CCC(=O)OC(=O)CC"
classification = "label 0"

[[record]]
compound = "c1ccc(SSc2ccccc2)cc1"
classification = "label 0"

[[record]]
compound = "CCCCCCOC(=O)C(C)CC (stereo not given)"
classification = "label 0"

[[record]]
compound = "O=C1NC(=O)[C@@H]2CC=CC[C@H]12"
classification = "label 0"

[[record]]
compound = "O=C(/C=C/c1ccc(O)c(O)c1)O[C@@H](C(=O)O)[C@@H](OC(=O)/C=C/c1ccc(O)c(O)c1)C(=O)O"
classification = "label 0"

[[record]]
compound = "Cc1c(C)c2c(c(C)c1OC(=O)c1cccnc1)CC[C@@](C)(CCC[C@H](C)CCC[C@H](C)CCCC(C)C)O2"
classification = "label 0"

